System: HCT-15
Residues, ends and D or L forms follow the SMILES beside them. *: point of attachment. Pentanoyl = CCCCC(=O)*; Boc = CC(C)(C)OC(=O)*

| molecule | experimentalSystem | GI50 |
| --- | --- | --- |
| CC(=O)Nc1ncc2c(n1)-c1ccccc1OC2 | HCT-15 | > 100 µM |
| CCCCC(=O)Oc1ccc(CC(NC(=O)OC(C)(C)C)C(=O)NC(C)C(=O)NC(Cc2ccccc2)C(=O)NCC(N)=O)cc1 (stereo not given) (Boc-Y(Pentanoyl)AFG-NH2; configuration not given here) | HCT-15 | > 100 µM |
| CC(=O)OC1c2ccccc2CC2(OC(C)=O)c3ccccc3C12 (stereo not given) | HCT-15 | > 100 µM |
| Cc1nc2c(nc1C)C(=O)c1ccccc1C2=O | HCT-15 | 2.58 µM |
| c1ccc(P(CCP(c2ccccn2)c2ccccn2)c2ccccc2)cc1 | HCT-15 | > 100 µM |
| O=C1CCc2c3c(c4c([nH]c5ccccc54)c2CC1)C(=O)NC3=O | HCT-15 | 2.7 µM |
| NS(=O)(=O)c1ccc(NC(=O)N/N=C/c2ccccc2[N+](=O)[O-])cc1 | HCT-15 | 35 µM |
| CCCc1cc(=O)oc2c3c(c4c(c12)OC(C)(C)CC4)O[C@H](C)[C@@H](C)[C@H]3O | HCT-15 | 13.4 µM |
| CCOP(=O)(OCC)/C(C#N)=C/c1cnc(-c2ccccc2)[nH]1 | HCT-15 | > 100 µM |
| CCOC(=O)N1c2c(ccn2C)-c2ccn(C)c2N1C(=O)OCC | HCT-15 | 12.9 µM |
| O=CNc1cccc2c3c([nH]c12)CCCCCC3 | HCT-15 | > 100 µM |
| CC(C)(C)c1cc(-c2cc(C(C)(C)C)[nH]n2)[nH]n1 | HCT-15 | > 100 µM |
| N#Cc1c(N)oc2cc3c(C#N)c(N)oc3cc12 | HCT-15 | > 100 µM |
| Cc1nc(C)c(N2CCN(C(=O)O)CC2)c(O)n1 | HCT-15 | > 100 µM |
| O=C1c2cccc(NCCNCCO)c2C(=O)c2cccc(NCCNCCO)c21 | HCT-15 | 5.28 µM |
| COc1cc(C2SCC(=O)N2c2ccc(-n3c(-c4ccccc4)nc4ccccc4c3=O)cc2)cc(OC)c1OC (stereo not given) | HCT-15 | 71.1 µM |
| O=C1NC(=S)NC(=O)C1=C(O)Nc1ccccc1 | HCT-15 | 14.2 µM |
| Sc1nn2c(COc3ccc(Cl)cc3)nnc2s1 | HCT-15 | 81.8 µM |
| C=CCC1OC(C)(C)Oc2ccc(OCOCCOC)cc21 (stereo not given) | HCT-15 | > 100 µM |
| COC(=O)c1sc2c(Cl)c(Cl)sc2c1Cl | HCT-15 | > 100 µM |
